assay: ATG_XTT_Cytotoxicity: Cytotoxicity Assessment in the Attagene TRANS-FACTORIAL HepG2 Assay (AID 2283584)
Inconclusive results are not listed. Activity calls are given as the source filed them. Rule for the calls: active = hit-call score of the fitted dose curve at least 0.9, where 1 is the maximum; inconclusive = response in the unintended direction; inactive = score below 0.9.
Outcomes: TRUE (active), FALSE (inactive)

INSERT INTO measurements (molecule, class_label) VALUES
  ('C#CC1(O)CC[C@H]2[C@@H]3CCC4=CCCC[C@@H]4[C@H]3CC[C@@]21C (some centres not stated)', 'TRUE'),
  ('CC1=CC[C@H](C(C)C)C=C1', 'FALSE'),
  ('O=C(Nc1cccc(C(F)(F)F)c1)c1cc(Br)cc(Br)c1O', 'FALSE'),
  ('Nc1ccc2cc3ccccc3cc2c1', 'FALSE'),
  ('O=c1[nH]nc(-c2ccc([N+](=O)[O-])o2)o1', 'FALSE'),
  ('Cc1cc(C)c(C)c(C)c1', 'FALSE'),
  ('CC(=O)NS(=O)(=O)c1ccc(N)cc1', 'FALSE');

###

read-out: Interleukin-8 (IL8), CXCL8 (gene 3576); assay: BSK_SAg_IL8: BioMAP Diversity Plus: SAg Assay for Interleukin-8 (IL8) Biomarker Activity (AID 2283094); settings: primary human HUVEC with PBMC; actives raise or lower the signal
Activity calls are given as the source filed them. How the source made its calls: active means hit-call score of the fitted dose curve at least 0.9, where 1 is the maximum; inactive means score below 0.9.
reported.metric: outcome

INSERT INTO assay_data (compound, observed_result) VALUES
  ('O=c1c2ccccc2oc2ccccc12', 'inactive'),
  ('O=Nc1ccc(O)cc1', 'inactive'),
  ('CN1C(=O)N(C)C(O)C1O (stereo not drawn)', 'inactive');

###

Assay: ATG_Oct_MLP_CIS: Attagene CIS-FACTORIAL HepG2 Assay for human Octamer-Binding Transcription Factor (Oct) (AID 2282993)
Conditions: HepG2 Attagene cis-factorial Oct reporter, mRNA; actives raise or lower the signal
Method: ATG_CIS is a cell-based, multiplexed-readout assay that uses HepG2, a human liver cell line, with measurements taken at 24 hours after chemical dosing in a 24-well plate.ATG_Oct_MLP_CIS is one of 52 assay component(s) measured or calculated from the ATG_CIS assay. […] This assay endpoint, ATG_Oct_MLP_CIS, was analyzed with bidirectional fitting relative to DMSO as the negative control and baseline of activity. […]
Active and inactive are the calls of the source. How the source made its calls: active means hit-call score of the fitted dose curve at least 0.9, where 1 is the maximum; inactive means score below 0.9.
Outcomes: 1 (yes) (active), 0 (no) (inactive)

INSERT INTO assay_data (compound, class_label) VALUES
  ('CCCCCCC(O)CO (stereo not drawn)', '0 (no)'),
  ('C=C(C)CCO', '0 (no)'),
  ('CC(C)CCCCCOC(=O)CCS', '0 (no)'),
  ('CN(C)CCCN(C)C', '0 (no)'),
  ('CCCCCCOC(=O)C(C)CC (stereo not drawn)', '0 (no)'),
  ('CC(=O)[C@@]1(O)CC[C@H]2[C@@H]3C[C@H](C)C4=CC(=O)C=C[C@]4(C)[C@@]3(F)[C@@H](O)C[C@@]21C', '0 (no)'),
  ('COC(=O)C1=C(C)NC(C)=C(C(=O)OCC(C)C)C1c1ccccc1[N+](=O)[O-] (stereo not drawn)', '0 (no)'),
  ('CCCC(C)CCC(C)=O (stereo not drawn)', '0 (no)'),
  ('CCCOCCOCCOCCO', '0 (no)'),
  ('CN(C)c1ccc(C(=N)c2ccc(N(C)C)cc2)cc1', '1 (yes)'),
  ('CC1=NN(c2cc(S(=O)(=O)O)ccc2Cl)C(=O)C1N=Nc1ccccc1 (stereo not drawn)', '0 (no)'),
  ('CCN(CCO)c1cccc(C)c1', '0 (no)'),
  ('O=C(c1ccc(O)cc1)c1ccc(O)cc1O', '0 (no)'),
  ('COC(=O)/C=C\C(=O)O', '0 (no)'),
  ('CC(C)=CCC/C(C)=C\C#N', '0 (no)'),
  ('CCCc1ccc(OC)cc1', '0 (no)'),
  ('CCCCCC(C)O (stereo not drawn)', '0 (no)'),
  ('O=c1[nH]nc(-c2ccc([N+](=O)[O-])o2)o1', '0 (no)'),
  ('CC(=O)c1ccc[nH]1', '0 (no)'),
  ('Cc1cc(C)c(C(=O)O)c(C)c1', '0 (no)'),
  ('CC1(C)O[C@@H]2C[C@H]3[C@@H]4C[C@H](F)C5=CC(=O)CC[C@]5(C)[C@H]4[C@@H](O)C[C@]3(C)[C@]2(C(=O)CO)O1', '0 (no)'),
  ('O=C(Cl)c1cc(C(=O)Cl)cc(C(=O)Cl)c1', '0 (no)'),
  ('COC(=O)/C=C/C(C)=C\C=C\C(C)=C\C=C\C=C(C)\C=C\C=C(C)\C=C\C(=O)O', '0 (no)'),
  ('CC(C)(Oc1ccc(C2CC2(Cl)Cl)cc1)C(=O)O (stereo not drawn)', '0 (no)'),
  ('C=C1[C@H]2CC[C@@H]3[C@H]2C(C)(C)CCC[C@]13C', '0 (no)'),
  ('CC(C)(C)c1ccc(-c2ccc(C(C)(C)C)cc2)cc1', '0 (no)'),
  ('Cc1ccc(N)c([N+](=O)[O-])c1', '0 (no)'),
  ('CCCCCCCC[N+](C)(CCCCCCCC)CCCCCCCC', '0 (no)'),
  ('N[C@H]1C(O)O[C@H](CO)[C@H](O)[C@@H]1O (stereo partly drawn)', '0 (no)'),
  ('CN1C(=O)N(C)C(O)C1O (stereo not drawn)', '0 (no)'),
  ('CC(C)CCCC(C)CC=O (stereo not drawn)', '0 (no)'),
  ('CC=C1CC2C=CC1C2 (stereo not drawn)', '0 (no)'),
  ('O=C(O)c1cc(Cl)cc([N+](=O)[O-])c1Cl', '0 (no)'),
  ('O=CN1CCCCC1', '0 (no)'),
  ('O=S(=O)(O)CC(O)CCl (stereo not drawn)', '0 (no)'),
  ('OCCN(CCO)c1ccccc1', '0 (no)'),
  ('CCOC(=O)CC', '0 (no)'),
  ('C=CC(C)(CCC=C(C)C)OC(=O)CC(C)C (stereo not drawn)', '0 (no)'),
  ('C=CC(=O)OCCOC(=O)C=C', '1 (yes)'),
  ('CCCCCc1ccc(Cl)cc1', '0 (no)'),
  ('CCCCCCCCCCCCCOP(=O)(O)O', '0 (no)'),
  ('CC(=O)OCc1ccco1', '0 (no)'),
  ('COCC(C)N (stereo not drawn)', '0 (no)'),
  ('CCc1c(C(=O)O)c(=O)cnn1-c1ccc(Cl)cc1', '0 (no)'),
  ('C1=Cc2ccccc2C1', '0 (no)'),
  ('COC(=O)c1c(C)cc(O)c(C)c1O', '0 (no)'),
  ('CC(C)(C)C(=O)CCc1ccc(Cl)cc1', '0 (no)'),
  ('Cc1ccc(C(C)(C)C)cc1', '0 (no)'),
  ('O=C(Nc1cccc(C(F)(F)F)c1)c1cc(Br)cc(Br)c1O', '1 (yes)'),
  ('NC(=O)N=NC(N)=O', '0 (no)'),
  ('CCCCC(CC)COC(=O)c1ccccc1 (stereo not drawn)', '0 (no)'),
  ('CCCCOCCOC(=O)COc1nc(Cl)c(Cl)cc1Cl', '0 (no)'),
  ('c1ccc(-c2ccccn2)nc1', '0 (no)'),
  ('NC(CO)(CO)CO', '0 (no)'),
  ('Cc1cccc(C(=O)O)c1', '0 (no)'),
  ('C=C[C@](C)(O)CC[C@@H]1[C@@]2(C)CCCC(C)(C)[C@@H]2CC[C@@]1(C)O', '0 (no)'),
  ('Cc1cnc(NC(=O)C2=C(O)c3ccccc3S(=O)(=O)N2C)s1', '0 (no)'),
  ('CC(CC=O)c1ccccc1 (stereo not drawn)', '0 (no)');

###

read-out: urokinase plasminogen activator (uPA), PLAU (gene 5328); assay: BSK_KF3CT_uPA: BioMAP Diversity Plus: KF3CT Assay for urokinase plasminogen activator (uPA) Biomarker Activity (AID 2283075); conditions: primary human keratinocytes with fibroblasts; actives raise or lower the signal
Calls of active or inactive are those of the source. The calls were made as follows: active = hit-call score of the fitted dose curve at least 0.9, where 1 is the maximum; inactive = score below 0.9.
Outcomes: TRUE = active, FALSE = inactive

INSERT INTO measurements (structure_string, class_label) VALUES
  ('O=C(Cl)c1cc(C(=O)Cl)cc(C(=O)Cl)c1', 'TRUE'),
  ('c1ccc(-c2ccccn2)nc1', 'FALSE'),
  ('C=CC=CC=CCCCCC', 'FALSE'),
  ('C=C[Si](OC(C)=O)(OC(C)=O)OC(C)=O', 'FALSE'),
  ('COCc1c(C(C)C)nc(C(C)C)c(/C=C/[C@@H](O)C[C@@H](O)CC(=O)O)c1-c1ccc(F)cc1', 'FALSE'),
  ('c1ccc2c(c1)ccc1ncccc12', 'FALSE');
